src = ChEMBL document CHEMBL1821687

# Target: Survival motor neuron protein (Homo sapiens) (UniProt Q16637)
# Sequence (Q16637 whole entry): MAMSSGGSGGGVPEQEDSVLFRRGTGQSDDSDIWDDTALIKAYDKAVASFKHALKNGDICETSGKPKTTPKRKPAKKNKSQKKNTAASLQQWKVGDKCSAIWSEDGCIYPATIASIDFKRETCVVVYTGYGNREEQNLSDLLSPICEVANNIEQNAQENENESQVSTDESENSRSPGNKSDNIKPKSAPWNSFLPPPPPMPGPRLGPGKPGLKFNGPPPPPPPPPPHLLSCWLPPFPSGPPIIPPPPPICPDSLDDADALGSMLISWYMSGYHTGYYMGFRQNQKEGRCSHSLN
# Method Description: Activation of SMN expressed in HEK293 cells assessed as rate of induction by SMN2-promotor driven luciferase reporter gene assay relative to basal level
# Format: cell-based
# Design: concentration or dose not given beside the values
Under this convention, y denotes Activity strictly below 60% and n denotes Activity at or above 60%.

chemical_structure=O=C(Nc1ccccc1)C1CCN(c2nc(-c3ccc(Br)cc3)cs2)CC1 class=n
chemical_structure=NC(=O)C1CCN(c2nc(-c3ccccc3)cs2)CC1 class=n
chemical_structure=NC(=O)C1CCN(c2nc(-c3ccc4c(c3)OCCCO4)cs2)CC1 class=n
chemical_structure=O=C(NCCc1ccccc1)C1CCN(c2nc(-c3ccc(Br)cc3)cs2)CC1 class=y
chemical_structure=NC(=O)C1CCN(c2nc(-c3ccccc3Cl)cs2)CC1 class=y
chemical_structure=CN(C)C(=O)C1CCN(c2nc(-c3ccc(Br)cc3)cs2)CC1 class=y

----------
# Target: Survival motor neuron protein (Homo sapiens) (UniProt Q16637)
# Method Description: Activation of SMN expressed in HEK293 cells assessed as concentration required to reach 50% of maximum luciferase signal by SMN2-promotor driven luciferase reporter gene assay
# Assay type: cell-based
The source made the active and inactive calls. The calls are words filed in the database; no cut-off is given here.
Readout: Activity

chemical_structure=COc1ccccc1-c1csc(N2CCC(C(N)=O)CC2)n1 readout=Activity result=inactive
chemical_structure=Brc1ccc(-c2csc(N3CCOCC3)n2)cc1 readout=Activity result=inactive
chemical_structure=CC(=O)NC1CCN(c2nc(-c3ccc(Br)cc3)cs2)CC1 readout=Activity result="15.4 µM"
chemical_structure=COc1cc(-c2csc(N3CCC(C(N)=O)CC3)n2)cc(OC)c1OC readout=Activity result="19.4 µM"
chemical_structure=NC(=O)C1CCN(c2cc(-c3ccc4c(c3)OCCCO4)ncn2)CC1 readout=Activity result="7.72 µM"
chemical_structure=NC(=O)C1CCN(c2nc(-c3ccc(N4CCCCC4)nc3)cs2)CC1 readout=Activity result="6.13 µM"
chemical_structure=COc1ccc(-c2cnc(N3CCC(C(N)=O)CC3)s2)cc1OC readout=Activity result="9.72 µM"
chemical_structure=CN(C)c1cccc(-c2cnc(N3CCC(C(N)=O)CC3)s2)c1 readout=Activity result="0.039 µM"

----------
# Test system: Liver
# Method Description: Half-life in mouse liver microsome at 1 uM
# Format: ADME
# Recorded Conditions: microsomes
Use 20 min as the dividing line for t1/2, with the line itself on the MET side and lower values as NOT MET.

chemical_structure=NC(=O)C1CCN(c2nnc(-c3ccc4c(c3)OCCCO4)s2)CC1 target=Liver class=MET
chemical_structure=CSc1ccc(-c2cnc(N3CCC(C(N)=O)CC3)s2)cc1 target=Liver class="NOT MET"
chemical_structure=Cc1ccc(-c2cnc(N3CCC(C(N)=O)CC3)s2)cc1 target=Liver class="NOT MET"
chemical_structure=CC(C)Oc1cccc(-c2ccnc(N3CCC(C(N)=O)CC3)n2)c1 target=Liver class="NOT MET"
chemical_structure=NC(=O)C1CCN(c2ncc(-c3ccc4c(c3)OCCCO4)s2)CC1 target=Liver class=MET
chemical_structure=NC(=O)C1CCN(c2nc(-c3ccc(Br)cc3)cs2)CC1 target=Liver class="NOT MET"
chemical_structure=CC(C)Oc1cccc(-c2cnc(N3CCC(C(N)=O)CC3)s2)c1 target=Liver class=MET
chemical_structure=O=C(Nc1ccccc1)C1CCN(c2ncc(-c3ccc4c(c3)OCCCO4)s2)CC1 target=Liver class="NOT MET"

----------
# Target: UniProtKB Q16637
# Method Description: Activation of SMN expressed in HEK293 cells assessed as concentration required to reach 50% of maximum luciferase signal by SMN2-promotor driven luciferase reporter gene assay
# Type: cell-based
Active and inactive are the calls of the source. The rule behind the calls is not given here.
Readout: Activity

chemical_structure=Cn1ccc2cc(-c3csc(N4CCC(C(N)=O)CC4)n3)ccc21 result="7.72 µM"
chemical_structure=NC(=O)C1CCN(c2nc(-c3cccc(C(F)(F)F)c3)cs2)CC1 result="3.87 µM"
chemical_structure=O=C(O)C1CCN(c2ncc(-c3ccc4c(c3)OCCCO4)s2)CC1 result="0.012 µM"
chemical_structure=NC(=O)C1CCN(c2nnc(-c3ccc(Br)cc3)s2)CC1 result=inactive
chemical_structure=CN(C)c1cccc(-c2ncnc(N3CCC(C(N)=O)CC3)n2)c1 result="1.22 µM"
chemical_structure=CN(C)c1cccc(-c2nnc(N3CCC(C(N)=O)CC3)s2)c1 result="0.387 µM"
chemical_structure=NC(=O)C1CCN(c2nc(-c3ccc4c(c3)OCO4)cs2)CC1 result="2.44 µM"
chemical_structure=NC(=O)C1CCN(c2ncc(-c3ccc4c(c3)OC(F)(F)O4)s2)CC1 result="0.194 µM"
chemical_structure=Cc1ccc(-c2ccnc(N3CCC(C(N)=O)CC3)n2)cc1 result="0.387 µM"
chemical_structure=CC(C)Oc1ccc(-c2csc(N3CCC(C(N)=O)CC3)n2)cc1 result="3.87 µM"
chemical_structure=c1c[nH]c(C2CCN(c3ncc(-c4ccc5c(c4)OCCCO5)s3)CC2)n1 result="2.44 µM"
chemical_structure=NC(=O)C1CCN(c2ncc(-c3ccc(Br)cc3)s2)CC1 result="0.224 µM"
chemical_structure=NC(=O)N1CCN(c2nc(-c3ccc(Br)cc3)cs2)CC1 result="12.2 µM"
chemical_structure=CN(C)c1cccc(-c2nccc(N3CCC(C(N)=O)CC3)n2)c1 result="12.2 µM"
chemical_structure=O=C(c1ccco1)N1CCN(c2nc(-c3ccc(Br)cc3)cs2)CC1 result=inactive
chemical_structure=CN(C)C(=O)C1CCN(c2nc(-c3ccc(Br)cc3)cs2)CC1 result="30.8 µM"

----------
# Target: Survival motor neuron protein (Homo sapiens) (UniProt Q16637)
# Method Description: Activation of SMN expressed in HEK293 cells assessed as concentration required to reach 50% of maximum luciferase signal by SMN2-promotor driven luciferase reporter gene assay
# Type: cell-based
Calls of active or inactive are those of the source. No cut-off for these calls is given here.
Readout: Activity

chemical_structure=O=C(NCCCc1ccccc1)C1CCN(c2nc(-c3ccc(Br)cc3)cs2)CC1 result=inactive
chemical_structure=O=C(C1CCN(c2nc(-c3ccc(Br)cc3)cs2)CC1)N1CCNCC1 result=inactive
chemical_structure=NC(=O)C1CCN(c2ncc(-c3cccc(N4CCOCC4)c3)s2)CC1 result="2.44 µM"
chemical_structure=NC(=O)C1CCN(c2nc(-c3ccc(OCc4ccccc4)cc3)cs2)CC1 result=inactive
chemical_structure=NC(=O)C1CCN(c2nc(-c3ccc(OC(F)(F)F)cc3)cs2)CC1 result="3.07 µM"
chemical_structure=Cc1ccc(-c2cnc(N3CCC(C(N)=O)CC3)s2)cc1 result="0.077 µM"
chemical_structure=CN(C)c1cccc(-c2cnc(N3CCC(c4ncc[nH]4)CC3)s2)c1 result="7.72 µM"

----------
# Target: Survival motor neuron protein (Homo sapiens) (UniProt Q16637)
# Method Description: Activation of SMN expressed in HEK293 cells assessed as rate of induction by SMN2-promotor driven luciferase reporter gene assay relative to basal level
# Type: cell-based
# Parameters: concentration or dose not given beside the values
Use 300% as the dividing line for Activity, with the line itself on the y side and lower values as n.

chemical_structure=N#Cc1ccc(-c2csc(N3CCC(C(N)=O)CC3)n2)cc1 class=n
chemical_structure=NC(=O)C1CCN(c2nc(-c3cccc(F)c3)cs2)CC1 class=n
chemical_structure=CCOC(=O)C1CCN(c2ncc(-c3ccc4c(c3)OCCCO4)s2)CC1 class=y
chemical_structure=NC(=O)C1CCN(c2cc(-c3ccc4c(c3)OCCCO4)ncn2)CC1 class=n
chemical_structure=NC(=O)C1CCN(c2nc(-c3ccc4c(c3)OCC4)cs2)CC1 class=y
chemical_structure=CC(C)Oc1cccc(-c2cnc(N3CCC(C(N)=O)CC3)s2)c1 class=y
chemical_structure=COc1cc(OC)cc(-c2csc(N3CCC(C(N)=O)CC3)n2)c1 class=n
chemical_structure=CN(C)c1cccc(-c2csc(N3CCC(C(N)=O)CC3)n2)c1 class=y
chemical_structure=CN(C)C(=O)c1ccc(-c2csc(N3CCC(C(N)=O)CC3)n2)cc1 class=n
chemical_structure=CC(C)Oc1ccc(-c2csc(N3CCC(C(N)=O)CC3)n2)cc1 class=n
chemical_structure=CN(C)c1cccc(-c2nc(N3CCC(C(N)=O)CC3)ncc2F)c1 class=y
chemical_structure=CC(=O)N1CCN(c2nc(-c3ccc(Br)cc3)cs2)CC1 class=n
chemical_structure=CN(C)c1cccc(-c2ccnc(N3CCC(C(N)=O)CC3)n2)c1 class=y
chemical_structure=O=C(Nc1ccccc1)C1CCN(c2ncc(-c3ccc4c(c3)OCCCO4)s2)CC1 class=y
chemical_structure=NC(=O)C1CCN(c2ncc(-c3cccc(N4CCCC4)c3)s2)CC1 class=y
chemical_structure=NC(=O)C1CCN(c2nc(-c3cccs3)cs2)CC1 class=n
chemical_structure=CC(=O)C1CCN(c2ncc(-c3cccc(N(C)C)c3)s2)CC1 class=n
chemical_structure=CN(C)c1cccc(-c2ncc(F)c(N3CCC(C(N)=O)CC3)n2)c1 class=n
chemical_structure=CSc1ccc(-c2cnc(N3CCC(C(N)=O)CC3)s2)cc1 class=y
chemical_structure=NC(=O)N1CCN(c2nc(-c3ccc(Br)cc3)cs2)CC1 class=n
chemical_structure=NC(=O)C1CCN(c2ncc(-c3cccc(N4CCOCC4)c3)s2)CC1 class=n
chemical_structure=CN(C)c1cccc(-c2cnc(N3CCC(c4ncc[nH]4)CC3)s2)c1 class=n
chemical_structure=COc1cccc(-c2csc(N3CCC(C(N)=O)CC3)n2)c1 class=y
chemical_structure=CN(C)c1cccc(-c2cc(N3CCC(C(N)=O)CC3)ncn2)c1 class=n
chemical_structure=CC(C)Oc1cccc(-c2csc(N3CCC(C(N)=O)CC3)n2)c1 class=y
chemical_structure=O=C(O)C1CCN(c2nc(-c3ccc(Br)cc3)cs2)CC1 class=y
chemical_structure=c1c[nH]c(C2CCN(c3ncc(-c4ccc5c(c4)OCCCO5)s3)CC2)n1 class=n
chemical_structure=CC(=O)c1ccc(-c2csc(N3CCC(C(N)=O)CC3)n2)cc1 class=n
chemical_structure=NC(=O)C1CCN(c2nc(-c3cccc4sc5ccccc5c34)cs2)CC1 class=y
chemical_structure=NC(=O)C1CCN(c2nc(-c3ccccc3F)cs2)CC1 class=n
chemical_structure=CC(C)(C)c1ccc(-c2csc(N3CCC(C(N)=O)CC3)n2)cc1 class=n
chemical_structure=Brc1ccc(-c2csc(N3CCCCC3)n2)cc1 class=n
chemical_structure=NC(=O)C1CCN(c2ncc(-c3cccc(F)c3)s2)CC1 class=y
chemical_structure=COc1ccc(-c2csc(N3CCC(C(N)=O)CC3)n2)cc1 class=n
